For each of the compounds below, state its pIC50.
Biological target: BTK, recombinant human catalytic domain (aa 393-659) (Homo sapiens (Human), UniProt Q06187)
Sequence (Q06187 393-659): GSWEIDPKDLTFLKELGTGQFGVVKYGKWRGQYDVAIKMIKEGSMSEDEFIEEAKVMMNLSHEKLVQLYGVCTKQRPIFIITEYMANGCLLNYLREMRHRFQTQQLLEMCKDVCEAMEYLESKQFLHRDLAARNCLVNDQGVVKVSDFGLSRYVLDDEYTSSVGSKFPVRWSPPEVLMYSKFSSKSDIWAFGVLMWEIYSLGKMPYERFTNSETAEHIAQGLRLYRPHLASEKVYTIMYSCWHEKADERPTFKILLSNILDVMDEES
Assay: In vitro BTK kinase activity measured by time-resolved fluorescence resonance energy transfer (trFRET)
Format: biochemical
Conditions: trFRET, 0.001 mM ATP, biotin-TYR1 peptide substrate; read-out: Btk IC50
pIC50: −log10 of the molar value.

In: Entry Cc1c(-c2ccc(C(N)=O)c3[nH]c(C4=CCOCC4)cc23)cccc1-n1cnc2ccccc2c1=O [A.11.1] : reported pIC50 = ?
Out: > 7.00

In: Quick one: CC#CC(=O)NCc1ccccc1-c1cc2c(-c3cccc(NC(=O)c4nccs4)c3C)ccc(C(N)=O)c2[nH]1 [D.1.1]
Out: 5.00 to 6.00

In: Quick one: NC(=O)c1ccc(-c2cccnc2)c2cc(-c3ccc(F)cc3)[nH]c12 [A.9.2]
Out: > 7.00

In: Quick one: C=CC(=O)Nc1cccc(-c2ccc(C(N)=O)c3[nH]c(-c4ccnn4C)cc23)c1C [A.1.11]
Out: > 7.00

In: Quick one: Cc1c(NC(=O)c2nccs2)cccc1-c1ccc(C(N)=O)c2[nH]c(C3=CCN(S(C)(=O)=O)CC3)cc12 [A.4.17]
Out: > 7.00

In: Quick one: Cc1ccc(-c2cc3c(-c4ccncc4)ccc(C(N)=O)c3[nH]2)cc1 [A.8.4]
Out: 6.00 to 7.00

In: Quick one: CCNC(=O)/C=C\C(=O)Nc1cccc(-c2ccc(C(N)=O)c3[nH]ccc23)c1 [D.9.2]
Out: > 7.00

In: Quick one: C=C(C)C(=O)Nc1c[nH]c2c(C(N)=O)ccc(-c3cccc(NC(=O)c4nccs4)c3C)c12 [D.3.4]
Out: 5.00 to 6.00

In: Quick one: C=CC(=O)Nc1cccc(-c2ccc(C(N)=O)c3[nH]c(C4=CCC(F)(F)CC4)cc23)c1C [E.1]
Out: > 7.00

In: Quick one: CC(=O)N1CCC(c2cc3c(-c4cccc(N)c4C)ccc(C(N)=O)c3[nH]2)CC1 [L.1]
Out: 6.00 to 7.00

In: Quick one: C=C(CN(C)C)C(=O)Nc1cccc(-c2ccc(C(N)=O)c3[nH]ccc23)c1 [D.6.1]
Out: > 7.00

In: Quick one: N#CCNS(=O)(=O)c1cccc(-c2ccc(C(N)=O)c3[nH]ccc23)c1 [A.6.1]
Out: 5.00 to 6.00

In: Quick one: Cn1cc(-c2cc3c(-c4cccc(-n5ccc6cc(C7CC7)cc(F)c6c5=O)c4CO)ccc(C(N)=O)c3[nH]2)cn1 [A.15.1]
Out: > 7.00

In: Quick one: Cc1c(NC(=O)c2ccc(C(F)F)cc2)cccc1-c1ccc(C(N)=O)c2[nH]c(-c3cncnc3)cc12 [A.13.3]
Out: 6.00 to 7.00

In: Quick one: C=CC(=O)N1CC([C@H](C)c2ccc(C(N)=O)c3[nH]ccc23)C1 [28 (S)]
Out: 6.00 to 7.00

* * *

For each of the molecules below, state its IC50.
Target: BTK, recombinant human catalytic domain (aa 393-659) (Homo sapiens (Human), UniProt Q06187)
Test: In vitro BTK kinase activity measured by time-resolved fluorescence resonance energy transfer (trFRET)
Assay type: biochemical
Details: trFRET, 0.001 mM ATP, biotin-TYR1 peptide substrate; read-out: Btk IC50

In: Entry Cc1c(-c2ccc(C(N)=O)c3[nH]c(-c4ccc(F)cc4)cc23)cccc1-n1cnc2ccccc2c1=O [A.12.1] : reported IC50 = ?
Out: < 100 nM

In: Quick one: C=CC(=O)Nc1cccc(-c2ccc(C(N)=O)c3[nH]c(-c4ccccc4)cc23)c1C [A.1.33]
Out: < 100 nM

In: Quick one: Cc1c(NC(=O)CCN2CCCC2)cccc1-c1ccc(C(N)=O)c2[nH]ccc12 [D.8.14]
Out: 1000 to 10000 nM

In: Quick one: C=CC(=O)N[C@@H]1CC[C@H](c2ccc(C(N)=O)c3[nH]ccc23)C1 (relative stereo) [Example 10]
Out: < 100 nM

In: Quick one: Cc1c(NC(=O)c2nccs2)cccc1-c1ccc(C(N)=O)c2[nH]c(-c3cnn(C)c3)cc12 [A.2.2]
Out: < 100 nM

In: Quick one: Cc1c(NC(=O)c2cc3c(s2)CCCC3)cccc1-c1ccc(C(N)=O)c2[nH]c(-c3cnn(C)c3)cc12 [A.10.5]
Out: < 100 nM
